Origin of the recorded values: PubChem BioAssay AID1963986

tested on: 171881-019-R-J1-PDC tumor spheroid viability; test: Anticancer human tumor 171881-019-R-J1-PDC patient-derived invasive breast carcinoma cell line growth inhibition [PI3K]; settings: second compound 0.316 µM; first compound 0.316 µM; spheroids with HUVEC and MSC; active = viability on the fitted dose curve at most 10% of control; inactive = the rest;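 note: spheroids exposed to compound for 7 days before viability read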
Mark one answer only. Choices: active, inactive

(Q) Record lookup: outcome of this test for CC(Cn1ccc(-c2ccc(C#N)c(Cl)c2)n1)NC(=O)c1cc(C(C)O)[nH]n1 (stereo not drawn) + Cc1nc(NC(=O)N2CCCC2C(N)=O)sc1-c1ccnc(C(C)(C)C(F)(F)F)c1 ?
(A) inactive

(Q) Record lookup: outcome of this test for C#Cc1c(F)ccc2cc(O)cc(-c3ncc4c(N5CC6CCC(C5)N6)nc(OCC56CCCN5CC(F)C6)nc4c3F)c12 (stereo not drawn) + Cc1nc(NC(=O)N2CCCC2C(N)=O)sc1-c1ccnc(C(C)(C)C(F)(F)F)c1 ?
(A) inactive

(Q) Record lookup: outcome of this test for Cn1nccc1Nc1nccc(-c2ccn(C(CO)c3ccc(Cl)c(F)c3)c(=O)c2)n1 (stereo not drawn) + COc1c(OCCCN2CCOCC2)ccc2c3n(c(=NC(=O)c4cnc(N)nc4)nc12)CCN3 ?
(A) active
